These data points were gathered from paper PMC10258794.

- Test system: P. aeruginosa PA14
- measurement.description: microbe, parasite or virus in culture
- experimental.conditions: MH broth pH 7.4, 16–20 h, 37 °C
quantity.measured: MIC PA14 (µg/mL)
Enter your answer as a number in µg/mL; do not include the unit.

[ask] So what does the record say about MIC PA14 for `CC(C)C[C@H](NC(=O)[C@H](CCCCN)NC(=O)[C@H](N)CCCCN)C(=O)N[C@@H](CC(C)C)C(=O)N[C@@H](CCCCN)C(=O)N[C@@H](CC(C)C)C(=O)N[C@@H](CC(C)C)C(=O)N[C@@H](CCCCN)C(=O)N[C@@H](CC(C)C)C(=O)N[C@@H](CC(C)C)C(=O)N[C@H](CC(C)C)C(N)=O` ?
[reply] 2

* * *

- Tested on: P. aeruginosa PAO1
- experimental.conditions: MH broth pH 7.4, 16–20 h, 37 °C
MIC P. aeruginosa PAO1 reference
Please respond with the number in µg/mL and leave the unit unwritten.

molecule	uom	MIC P. aeruginosa PAO1
CC(C)CC(NC(=O)C(CC(C)C)NC(=O)C(CC(C)C)NC(=O)C(CCCCN)NC(=O)C(CC(C)C)NC(=O)[C@H](CC(C)C)NC(=O)C(CCCCN)NC(=O)C(CC(C)C)NC(=O)C(CC(C)C)NC(=O)C(CCCCN)NC(=O)C(N)CCCCN)C(N)=O (mixture of isomers) [sr-ln65L^6]	µg/mL	8
CC(C)C[C@H](NC(=O)[C@H](CC(C)C)NC(=O)[C@@H](CCCCN)NC(=O)[C@H](CC(C)C)NC(=O)[C@H](CC(C)C)NC(=O)[C@@H](CCCCN)NC(=O)[C@H](N)CCCCN)C(=O)N[C@@H](CCCCN)C(=O)N[C@@H](CC(C)C)C(=O)N[C@H](CC(C)C)C(=O)N[C@H](CC(C)C)C(N)=O	µg/mL	4
CC(C)C[C@H](NC(=O)[C@H](CC(C)C)NC(=O)[C@H](CC(C)C)NC(=O)[C@H](CCCCN)NC(=O)[C@H](CC(C)C)NC(=O)[C@H](CC(C)C)NC(=O)[C@@H](CCCCN)NC(=O)[C@H](CC(C)C)NC(=O)[C@H](CC(C)C)NC(=O)[C@@H](CCCCN)NC(=O)[C@@H](N)CCCCN)C(N)=O	µg/mL	4
CC(C)C[C@H](NC(=O)[C@H](CC(C)C)NC(=O)[C@H](CC(C)C)NC(=O)[C@H](CCCCN)NC(=O)[C@H](CC(C)C)NC(=O)[C@H](CC(C)C)NC(=O)[C@H](CCCCN)NC(=O)[C@H](CC(C)C)NC(=O)[C@H](CC(C)C)NC(=O)[C@@H](CCCCN)NC(=O)[C@@H](N)CCCCN)C(N)=O	µg/mL	4

Now examine the next entry.
[ask] Reported MIC P. aeruginosa PAO1 for `CC(C)C[C@H](NC(=O)[C@@H](CC(C)C)NC(=O)[C@@H](CC(C)C)NC(=O)[C@H](CCCCN)NC(=O)[C@H](CC(C)C)NC(=O)[C@H](CC(C)C)NC(=O)[C@H](CCCCN)NC(=O)[C@H](CC(C)C)NC(=O)[C@@H](CC(C)C)NC(=O)[C@@H](CCCCN)NC(=O)[C@@H](N)CCCCN)C(N)=O` : what is it?
[reply] 16

* * *

- Test system: S. aureus Newman
- experimental.conditions: MH broth pH 7.4, 16–20 h, 37 °C
Each item that follows carries a reported MIC S. aureus Newman.
Please give a number only; it is taken to be in µg/mL.

Consider the following illustrative entries.
compound	target.or.system	uom	MIC S. aureus Newman
CC(C)C[C@H](NC(=O)[C@H](CC(C)C)NC(=O)[C@H](CC(C)C)NC(=O)[C@H](CCCCN)NC(=O)[C@H](CC(C)C)NC(=O)[C@H](CC(C)C)NC(=O)[C@@H](CCCCN)NC(=O)[C@H](CC(C)C)NC(=O)[C@H](CC(C)C)NC(=O)[C@@H](CCCCN)NC(=O)[C@H](N)CCCCN)C(N)=O [HP10, kkLLkLLKLLL]	S. aureus Newman	µg/mL	2
CC(C)C[C@@H](NC(=O)[C@@H](CC(C)C)NC(=O)[C@@H](CC(C)C)NC(=O)[C@H](CCCCN)NC(=O)[C@@H](CC(C)C)NC(=O)[C@@H](CC(C)C)NC(=O)[C@H](CCCCN)NC(=O)[C@@H](CC(C)C)NC(=O)[C@@H](CC(C)C)NC(=O)[C@H](CCCCN)NC(=O)[C@@H](N)CCCCN)C(N)=O [dln69, KKllKllKlll]	S. aureus Newman	µg/mL	1

Alright, here's another compound for you.
[ask] Which value of MIC S. aureus Newman has been reported for CC(C)C[C@H](NC(=O)[C@H](CC(C)C)NC(=O)[C@H](CC(C)C)NC(=O)[C@H](CCCCN)NC(=O)[C@H](CC(C)C)NC(=O)[C@H](CC(C)C)NC(=O)[C@H](CCCCN)NC(=O)[C@H](CC(C)C)NC(=O)[C@H](CC(C)C)NC(=O)[C@@H](CCCCN)NC(=O)[C@@H](N)CCCCN)C(N)=O [HP1] in the records?
[reply] 2
